Exercise: state measured z-score for each of the compounds provided.
# Assay name: inhibitors of hydroxyurea-induced Chk1 phosphorylation, primary screen, imaging, HeLa, phospho-Chk1 antibody, percent positive cells (AID 1186)
# Details: hydroxyurea-induced phospho-Chk1 immunofluorescence imaging, higher = more signal
Hey, just send me the number, nothing else.

Input line: // query z-score value for entry CCCCCN1CC=CC23O[C@@H]4/C=C\CCC(C)OC(=O)C4[C@H]2C(=O)N(CCCCCCO)[C@@H]3C1=O (stereo partly drawn)
Output line: -0.0032

Input line: Suppose we examine the compound CN1C(=O)[C@@]2(Cc3ccccc3)N=C(c3ccc(OCCCO)cc3)O[C@H]2c2ccccc21 ; what z-score value has been reported?
Output line: -0.632

Input line: I would be grateful if you could share the reported z-score for O=C1c2ccccc2[C@](Cc2ccccc2I)(C(=O)NC2CC2)[C@H](c2ccc(CO)cc2)N1Cc1ccccc1C(F)(F)F .
Output line: -0.0771

Input line: Give the measured z-score of C=C[C@@H](C)[C@H](O)c1ccc(OCCO)cc1 .
Output line: 0.485

Input line: # input compound: COCCOC(=O)N1C(=O)[C@@]2(c3cc(C#CCNC(N)=O)ccc31)[C@H](c1ccc(O)cc1)N1[C@H](c3ccccc3)[C@H](c3ccccc3)OC(=O)[C@H]1[C@@H]2C(=O)N1CCN(c2ncccn2)CC1 ; wanted: its z-score
Output line: -0.11

Input line: Endpoint output: z-score of C=C(/C(=C/C[C@H](OC(=O)c1ccncc1)c1cccc(OCCO)c1)c1cnc2ccccc2c1)C(C)C . Value?
Output line: 0.654

Input line: Return reported z-score; argument: CC(C)C(CO)N1C(=O)[C@@H]2[C@H]3C(=O)OCC=C[C@H]3OC23C=CCN(C(C)(C)C)C(=O)[C@@H]13 (stereo partly drawn)
Output line: 0.337

Input line: Give the measured z-score of Cc1ccc(S[C@]2(C(=O)NC(C)C)CC(=O)N(Cc3ccccc3Cl)[C@@H]2c2ccc(CO)cc2)cc1 .
Output line: -0.0383
